Biological target: Carnitine O-palmitoyltransferase 1, liver isoform (Homo sapiens, UniProt P50416)
Sequence (P50416 whole entry, canonical isoform): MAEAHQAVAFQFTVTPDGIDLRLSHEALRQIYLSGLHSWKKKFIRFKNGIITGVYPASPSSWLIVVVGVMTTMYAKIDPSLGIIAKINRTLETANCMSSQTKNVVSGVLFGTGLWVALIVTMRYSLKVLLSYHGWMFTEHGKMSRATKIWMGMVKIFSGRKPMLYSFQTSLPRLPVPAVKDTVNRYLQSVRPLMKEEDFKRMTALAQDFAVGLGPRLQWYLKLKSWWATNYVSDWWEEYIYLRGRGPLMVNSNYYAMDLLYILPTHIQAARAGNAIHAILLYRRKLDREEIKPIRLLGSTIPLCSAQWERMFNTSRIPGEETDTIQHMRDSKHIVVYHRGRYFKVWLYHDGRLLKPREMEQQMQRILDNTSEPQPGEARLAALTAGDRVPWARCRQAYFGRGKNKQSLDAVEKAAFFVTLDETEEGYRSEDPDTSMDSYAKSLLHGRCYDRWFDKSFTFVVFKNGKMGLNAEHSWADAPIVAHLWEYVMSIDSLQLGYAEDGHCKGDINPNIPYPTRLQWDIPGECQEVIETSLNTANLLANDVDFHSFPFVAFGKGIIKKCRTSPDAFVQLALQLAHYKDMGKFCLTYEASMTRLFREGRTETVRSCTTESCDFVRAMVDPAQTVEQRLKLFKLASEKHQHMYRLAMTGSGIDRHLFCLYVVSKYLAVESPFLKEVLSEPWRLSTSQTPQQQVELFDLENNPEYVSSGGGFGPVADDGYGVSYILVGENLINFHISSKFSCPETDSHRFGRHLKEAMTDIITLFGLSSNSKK
Assay: SUPPLEMENTARY: Inhibition of Carnitine palmitoyltransferase 1, liver isoform
property_label: IC50 (nM)

{"columns": ["smi", "unit_label", "IC50"],
 "data": [
  ["O=C(COc1ccccc1)N1CCNC[C@@H]1c1nc(-c2ccc3[nH]cnc3c2)no1", "nM", 132]
]}

A. COc1ccc(Cl)cc1Cn1ccc2ccc(C(=O)Nc3nc(CC(=O)O)cs3)cc21
B. O=C(Cn1cc(-c2ccccc2)c2ccccc21)Nc1ccc(C(=O)O)cc1
Kindly identify the item with the lower IC50 figure among these two: A and B Identify your pick by its label. A

###

Test: SUPPLEMENTARY: Lipophilicity (log D) Determination by high-throughput shake-flask
Type: physicochemical
Conditions: octanol/water
property_label: logD

{"columns": ["smi", "logD"],
 "data": [
  ["O=C(Nc1ccc(C(=O)O)c(F)c1)c1ccc2c(c1)N(S(=O)(=O)c1cccc(C(F)(F)F)c1)CC2", 2.77],
  ["N#Cc1cccc(-c2n[nH]c([C@H]3CCCCN3C(=O)COc3ccccc3)n2)c1", 2.98],
  ["COCCN(c1cc(C(=O)Nc2nc(CC(=O)O)cs2)cc2c1OCO2)S(=O)(=O)c1cc(Cl)ccc1OC", 2.57]
]}

P. O=C1CCN1c1cccc(-c2n[nH]c([C@H]3CCCCN3C(=O)COc3ccccc3)n2)c1
Q. COc1ccc(Cl)cc1S(=O)(=O)N1CCCCc2ccc(C(=O)Nc3nc(CC(=O)O)cs3)cc21
R. COc1ccc(Cl)cc1S(=O)(=O)N1CCOc2c(F)cc(C(=O)Nc3nc(CC(=O)O)cs3)cc21
S. O=C(O)COc1cccc(-c2noc([C@H]3CCCCN3C(=O)COc3ccccc3)n2)c1
# rank by logD, ascending (min first) Rank them, then answer with their labels in that order. S, R, Q, P

###

Target: Carnitine O-palmitoyltransferase 1, liver isoform (Rattus norvegicus)
Sequence (P32198 whole entry, canonical isoform): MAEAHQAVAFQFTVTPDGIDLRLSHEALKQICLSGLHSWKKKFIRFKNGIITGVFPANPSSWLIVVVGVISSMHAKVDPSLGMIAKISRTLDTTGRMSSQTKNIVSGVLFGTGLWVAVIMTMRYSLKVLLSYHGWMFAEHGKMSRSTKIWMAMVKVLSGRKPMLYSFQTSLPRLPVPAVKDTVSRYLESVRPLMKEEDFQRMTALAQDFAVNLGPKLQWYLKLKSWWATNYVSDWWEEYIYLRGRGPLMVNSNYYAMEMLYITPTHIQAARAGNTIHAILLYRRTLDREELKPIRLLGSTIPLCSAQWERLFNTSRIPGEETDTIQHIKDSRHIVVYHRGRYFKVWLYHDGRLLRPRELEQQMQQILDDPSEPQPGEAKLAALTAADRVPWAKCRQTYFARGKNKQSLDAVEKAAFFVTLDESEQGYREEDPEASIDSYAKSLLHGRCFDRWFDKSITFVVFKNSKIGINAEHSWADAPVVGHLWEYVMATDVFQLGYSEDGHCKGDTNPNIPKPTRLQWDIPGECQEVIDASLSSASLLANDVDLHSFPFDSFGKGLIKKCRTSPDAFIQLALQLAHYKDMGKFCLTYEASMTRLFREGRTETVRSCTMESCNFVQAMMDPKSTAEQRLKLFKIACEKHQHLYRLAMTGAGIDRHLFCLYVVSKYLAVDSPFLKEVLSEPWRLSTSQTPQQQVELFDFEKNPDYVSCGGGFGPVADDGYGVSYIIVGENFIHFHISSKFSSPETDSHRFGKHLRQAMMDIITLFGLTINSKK
Assay: SUPPLEMENTARY: Inhibition of Carnitine palmitoyltransferase 1, liver isoform
pIC50: −log10 of the molar value.
property_label: pIC50

Some compounds with recorded pIC50:
{"columns": ["smi", "pIC50"],
 "data": [
  ["Cc1cc(-c2noc([C@H]3CCCCN3C(=O)COc3ccccc3)n2)n(C)n1", 6.29],
  ["O=C1Cc2cc(-c3csc([C@H]4CCCCN4C(=O)COc4ccccc4)n3)ccc2N1", 6.81],
  ["N#Cc1ccc(-c2nc([C@H]3CCCCN3C(=O)COc3ccccc3)no2)cn1", 6.61],
  ["O=C(COc1ccccc1)N1CCCC[C@@H]1c1nc(-c2ccc([N+](=O)[O-])s2)no1", 6.42]
]}

A. O=C(COc1ccccc1)N1CCCC[C@@H]1c1csc(-c2ccc(F)cc2)n1
B. COc1ccc(Cl)cc1S(=O)(=O)N1CCNc2ccc(C(=O)Nc3ccc(C(=O)O)c(F)c3)cc21
Exercise: compare A and B ; which one has the greater pIC50? # respond with the chosen item's label B
(B: 6.79, A: 6.36)

1. CC(=O)Nc1ccc(-c2csc([C@H]3CCCCN3C(=O)COc3ccccc3)n2)cc1
2. CCC(=O)Nc1cccc(-c2n[nH]c([C@H]3CCCCN3C(=O)COc3ccccc3)n2)c1
Of the pair 1 and 2 , name the member with the lesser recorded pIC50. Select an item and report its label. 2

1. COc1ccc(Cl)cc1S(=O)(=O)Nc1cc(C(=O)Nc2ccc(C(=O)O)cc2)cn(C)c1=O
2. Cc1cc(C)cc(S(=O)(=O)c2nn(CC(=O)O)c3ccc(C(=O)Nc4ccccc4)cc23)c1
Pick one, 1 or 2 : lowest reported pIC50. Pick one; state its label. 1

A. COc1ccc(Cl)cc1S(=O)(=O)N1CCc2ccc(C(=O)Nc3ccn(CC(=O)O)n3)cc21
B. O=C(COc1ccccc1)N1CCCC[C@@H]1c1noc(-c2cc(Cl)nnc2O)n1
// pick min by pIC50: A , B Indicate which entry you chose by stating its label. B
(B: 6.20, A: 7.00)

###

Assay: SUPPLEMENTARY: PAMPA permeability assay
Format: physicochemical
Conditions: read-out: Permeability
property_label: Papp (×10⁻⁶ cm/s)

{"columns": ["smi", "unit_label", "endpoint_result"],
 "data": [
  ["CC(=O)Nc1cc(-c2nc([C@H]3CCCCN3C(=O)COc3ccccc3)no2)ccn1", "×10⁻⁶ cm/s", 5.4]
]}

a. O=C(COc1ccccc1)N1CCCC[C@@H]1c1nc(-c2ccc([N+](=O)[O-])s2)no1
b. CC(=O)Nc1cccc(C#C[C@H]2CCCCN2C(=O)COc2ccccc2)c1
c. COc1ccc(Cl)cc1S(=O)(=O)N1CCNc2ccc(C(=O)Nc3ccc(C(=O)O)c(F)c3)cc21
d. NC(=O)c1ccc(C#C[C@H]2CCCCN2C(=O)COc2ccccc2)cc1
Please list these in order of increasing Papp. Thank you! # answer = labels listed in requested order c, b, d, a
(c: 0.23 ×10⁻⁶ cm/s, b: 1.79 ×10⁻⁶ cm/s, d: 2.96 ×10⁻⁶ cm/s, a: 4.39 ×10⁻⁶ cm/s)

a. O=C(O)c1ccc(-c2csc([C@H]3CCCCN3C(=O)COc3ccccc3)n2)cc1
b. O=C(Cn1cc(-c2ccccc2)c2ccccc21)Nc1ccc(C(=O)O)cc1
I'd appreciate it if you could identify which of a and b has the greater Papp. # answer = label of selected item a

###

Test: SUPPLEMENTARY: Lipophilicity (log D) Determination by high-throughput shake-flask
Type: physicochemical
Conditions: octanol/water
property_label: logD

A. O=C(COc1ccccc1)N1CCCC[C@@H]1c1nc(-c2ccc([N+](=O)[O-])o2)no1
B. COc1ccc(Cl)cc1S(=O)(=O)c1cn(CC(=O)O)c2ccc(C(=O)Nc3ccccc3)cc12
Hi, I'm comparing two records. Which one has the lower logD, A or B ? Field: selected label. Fill in the label of the entry you choose. B
(B: -0.23, A: 2.53)

###

Biological target: Carnitine O-palmitoyltransferase 1, muscle isoform (Homo sapiens)
Sequence (Q92523 whole entry): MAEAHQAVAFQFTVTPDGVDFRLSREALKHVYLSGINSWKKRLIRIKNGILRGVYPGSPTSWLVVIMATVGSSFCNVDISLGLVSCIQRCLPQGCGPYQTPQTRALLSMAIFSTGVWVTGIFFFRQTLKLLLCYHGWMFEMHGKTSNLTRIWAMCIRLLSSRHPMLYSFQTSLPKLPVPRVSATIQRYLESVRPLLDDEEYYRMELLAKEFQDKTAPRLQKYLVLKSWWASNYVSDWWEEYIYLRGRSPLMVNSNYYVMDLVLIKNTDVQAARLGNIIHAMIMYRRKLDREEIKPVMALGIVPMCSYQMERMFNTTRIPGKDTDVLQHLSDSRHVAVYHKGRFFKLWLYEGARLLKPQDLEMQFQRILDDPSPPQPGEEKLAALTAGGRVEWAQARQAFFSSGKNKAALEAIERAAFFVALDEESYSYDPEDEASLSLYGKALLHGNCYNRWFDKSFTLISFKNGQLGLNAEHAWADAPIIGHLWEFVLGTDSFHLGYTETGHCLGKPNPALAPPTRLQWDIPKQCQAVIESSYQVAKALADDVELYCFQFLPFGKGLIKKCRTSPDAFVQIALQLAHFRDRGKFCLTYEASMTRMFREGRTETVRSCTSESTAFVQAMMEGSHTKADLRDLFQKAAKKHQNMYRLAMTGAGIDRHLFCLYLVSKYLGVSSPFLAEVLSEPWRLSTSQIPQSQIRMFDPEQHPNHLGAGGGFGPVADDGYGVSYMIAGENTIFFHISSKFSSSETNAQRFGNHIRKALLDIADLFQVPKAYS
Assay: SUPPLEMENTARY: Inhibition of Carnitine palmitoyltransferase 1, muscle isoform
pIC50: −log10 of the molar value.
property_label: pIC50

Worked cases, answers included:
{"columns": ["smi", "endpoint_result"],
 "data": [
  ["CS(=O)(=O)c1ccc(-n2nnc([C@H]3CCCCN3C(=O)COc3ccccc3)n2)cc1", "< 4.00"],
  ["CCN(c1cc(C(=O)Nc2ccc(CC(=O)O)cc2)cc2c1OCO2)S(=O)(=O)c1cc(Cl)ccc1OC", 5.55],
  ["COc1ccc(Cl)cc1S(=O)(=O)c1c[nH]c2ccc(C(=O)Nc3ccc(C(=O)O)cc3)cc12", 6.28],
  ["CC(=O)Nc1cc(-c2nc([C@H]3CCCCN3C(=O)COc3ccccc3)no2)ccn1", "< 4.00"],
  ["COc1ccc(Cl)cc1S(=O)(=O)c1cn(CCC(=O)O)c2ccc(C(=O)Nc3ccccc3)cc12", 5.04]
]}

I'd like to know its pIC50. The compound in question is COc1ccc(Cl)cc1S(=O)(=O)c1c2cc(C(=O)Nc3ccc(C(=O)O)cc3)ccc2nn1C < 4.00

Can you look up the measured pIC50 of COc1ccc(Cl)cc1Cn1cc(C(=O)O)c2ccc(C(=O)Nc3ccccc3)cc21 for me? < 4.00

// returns reported pIC50 for input O=C(COc1ccccc1)N1CCCC[C@@H]1c1nc(-c2ccncc2)cs1 < 4.00

Recorded pIC50 for O=C(COc1ccccc1)N1CCCC[C@@H]1c1csc(-c2ccncc2)n1 , please? < 4.00
